# target system: ScHof1
# protocol description: SPOT peptide array binding signal intensity (averaged, normalized) (arbitrary units (background-subtracted, floor 0; scale differs between SH3 domains)); higher = stronger binding of the SH3 domain to the peptide
property label: SPOT peptide array binding signal intensity

binder=YSRKKLPVVLSKMTL qualifier_symbol== test_result=4.5
binder=MKRSRPSRSIPYTTP qualifier_symbol== test_result=0.5
binder=EREKALPPIPFTTTL qualifier_symbol== test_result=66
binder=RFKRHRLEFPFNESE qualifier_symbol== test_result=5.25
binder=NRARYLPQNPDIIAG qualifier_symbol== test_result=1.5
binder=RSRRSSFAYPQQVAI qualifier_symbol== test_result=0.5
binder=TEVPIPRRPPPPQAA qualifier_symbol=≤ test_result=0
binder=IKKRNKIRLPSGSPE qualifier_symbol== test_result=1.5
binder=KRRTSLFPWLHKPGI qualifier_symbol=≤ test_result=0
binder=NRPAIRIPSLKKPAL qualifier_symbol=≤ test_result=0
binder=PPPPPPPPPPLPQSL qualifier_symbol== test_result=92.8
binder=RRLRDKYKLPIVDAD qualifier_symbol== test_result=1
binder=SAPDIPPRSPNRNAH qualifier_symbol=≤ test_result=0
binder=ISNFVPPNLPMRRFK qualifier_symbol== test_result=8.75
binder=RTRRRPPPPPIPSTQ qualifier_symbol== test_result=2
